# Test system: P. knowlesi H1
# test.details: in vitro growth inhibition of P. knowlesi H1 cultured in rhesus erythrocytes
# Format: cell-based
# experimental.conditions: Plasmodium knowlesi, Erythrocyte, in Macaca mulatta, read-out: IC50 (mean ± 95% confidence interval)
measured.quantity: pIC50
pIC50 is defined as minus the log10 of a concentration measured in mol/L.

Problem: // fetch pIC50 for NC(=O)C(c1ccccc1)(c1ccc(F)cc1)c1ccc(F)cc1 ; system: P. knowlesi H1
Solution: 4.76

----------
# System: P. knowlesi YH-1
# test.details: in vitro growth inhibition of P. knowlesi YH-1 adapted for culture in human erythrocytes
# Type: cell-based
# experimental.conditions: Plasmodium knowlesi, Erythrocyte, read-out: IC50 (mean ± 95% confidence interval)
measured.quantity: IC50

Problem: Query IC50 for NC(=O)C(c1ccccc1)(c1ccc(F)cc1)c1ccc(F)cc1 [senicapoc]
Solution: 11 µM

----------
# System: P. falciparum 7G8
# test.details: in vitro growth inhibition of P. falciparum 7G8
# Type: cell-based
# experimental.conditions: Plasmodium falciparum; P. falciparum 7G8, Res CQ; read-out: IC50 (mean ± 95% confidence interval)
measured.quantity: IC50 (nM)
Numeric answer only, unit nM assumed.

Problem: Query IC50 for OC(c1cc(C(F)(F)F)nc2c(C(F)(F)F)cccc12)C1CCCCN1 (stereo not drawn) [MQ, mefloquine]
Solution: 3.63

***
Problem: Query IC50 for C[C@H]1[C@@H](O)O[C@@H]2O[C@@]3(C)CC[C@H]4[C@H](C)CC[C@@H]1[C@@]24OO3 [DHA, dihydroartemisinin]
Solution: 1.65

Problem: Query IC50 for NC(=O)C(c1ccccc1)(c1ccc(F)cc1)c1ccc(F)cc1 [senicapoc]
Solution: 10900

----------
# Test system: P. falciparum 3D7
# test.details: in vitro growth inhibition of P. falciparum 3D7 over one asexual cycle
# Type: cell-based
# experimental.conditions: Plasmodium falciparum; blood-stage P. falciparum 3D7, FIG. 1; read-out: IC50
measured.quantity: pIC50
pIC50 is defined as minus the log10 of a concentration measured in mol/L.

Problem: // fetch pIC50 for NC(=O)C(c1ccccc1)(c1ccc(F)cc1)c1ccc(F)cc1 ; system: P. falciparum 3D7
Solution: 5.17

The measurements presented in this section are drawn from patent US10179115B2.
